# assay-details: Serum protease stability in 10% fetal calf serum (RP-HPLC)
# Format: in vitro ADME
# test-parameters: calf (bovine), 10% fetal calf serum; 7 h; 10% FCS, pH 7.3; read-out: % residual peptide ± SD
outcome-measure: remaining at 7 h, 10 μmol/L (%)
Respond numerically; units are % and should not be typed.

Asked: Any idea what its remaining at 7 h, 10 μmol/L is? The molecule is N[C@H](CCC(=O)O)C(=O)N[C@@H](CSCc1ccccc1)C(=O)N[C@@H](CC1CCCCC1)C(=O)NCCCC[C@H](NC(=O)[C@H](CC1CCCCC1)NC(=O)[C@H](CSCc1ccccc1)NC(=O)[C@H](N)CCC(=O)O)C(=O)NCCCC[C@H](NC(=O)[C@H](CCCCNC(=O)[C@H](CC1CCCCC1)NC(=O)[C@H](CSCc1ccccc1)NC(=O)[C@H](N)CCC(=O)O)NC(=O)[C@H](CC1CCCCC1)NC(=O)[C@H](CSCc1ccccc1)NC(=O)[C@H](N)CCC(=O)O)C(=O)N[C@H](CS)C(=O)O [iVR1-Cys]
Given back: 95

====

# assay-details: Serum protease stability in 10% fetal calf serum (RP-HPLC)
# Assay type: in vitro ADME
# test-parameters: calf (bovine), 10% fetal calf serum; 12 h; 10% FCS, pH 7.3; read-out: % residual peptide ± SD
outcome-measure: remaining at 12 h, 10 μmol/L (%)
Respond numerically; units are % and should not be typed.

Asked: Any idea what its remaining at 12 h, 10 μmol/L is? The compound is `N[C@H](CCC(=O)O)C(=O)N[C@@H](CSCc1ccccc1)C(=O)N[C@@H](CC1CCCCC1)C(=O)NCCCC[C@H](NC(=O)[C@H](CC1CCCCC1)NC(=O)[C@H](CSCc1ccccc1)NC(=O)[C@H](N)CCC(=O)O)C(=O)NCCCC[C@H](NC(=O)[C@H](CCCCNC(=O)[C@H](CC1CCCCC1)NC(=O)[C@H](CSCc1ccccc1)NC(=O)[C@H](N)CCC(=O)O)NC(=O)[C@H](CC1CCCCC1)NC(=O)[C@H](CSCc1ccccc1)NC(=O)[C@H](N)CCC(=O)O)C(=O)N[C@H](CS)C(=O)O`
Given back: 93

====

# assay-details: Serum protease stability in 10% fetal calf serum (RP-HPLC)
# Format: in vitro ADME
# test-parameters: calf (bovine), 10% fetal calf serum; 8 h; 10% FCS, pH 7.3; read-out: % residual peptide ± SD
outcome-measure: remaining at 8 h, 10 μmol/L (%)
Respond numerically; units are % and should not be typed.

Asked: Any idea what its remaining at 8 h, 10 μmol/L is? The compound is N[C@H](CCC(=O)O)C(=O)N[C@@H](CSCc1ccccc1)C(=O)N[C@@H](CC1CCCCC1)C(=O)NCCCC[C@H](NC(=O)[C@H](CC1CCCCC1)NC(=O)[C@H](CSCc1ccccc1)NC(=O)[C@H](N)CCC(=O)O)C(=O)NCCCC[C@H](NC(=O)[C@H](CCCCNC(=O)[C@H](CC1CCCCC1)NC(=O)[C@H](CSCc1ccccc1)NC(=O)[C@H](N)CCC(=O)O)NC(=O)[C@H](CC1CCCCC1)NC(=O)[C@H](CSCc1ccccc1)NC(=O)[C@H](N)CCC(=O)O)C(=O)N[C@H](CS)C(=O)O [iVR1-Cys]
Given back: 96
